Each entry below carries its reported self-cleavage kobs at 640 uM GlcN6P.
B1: glmS ribozyme (parent)
chain: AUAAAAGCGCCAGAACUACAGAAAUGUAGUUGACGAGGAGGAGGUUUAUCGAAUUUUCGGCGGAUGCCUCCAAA

# Variants of: B1
# ASSAY_NAME: self-cleavage kobs at 640 uM GlcN6P; higher = faster cleavage; RNA array
# CONDITION_CONTEXT: with glucosamine-6-phosphate
Fewer inactive variants are shown than the library holds.
Give just the number in s⁻¹; leave the unit off.

Use the examples below as a reference point.
Exam item: Bench note: what self-cleavage kobs at 640 uM GlcN6P did A14U G29A G62A U69G show?
Marked response: 7.37e-05

Exam item: And then C16G A53U , what is it?
Marked response: 0.000752

Exam item: And then G41A U54C , what is it?
Marked response: 0.00013

---
Exam item: Bench note: what self-cleavage kobs at 640 uM GlcN6P did C16G C67U show?
Marked response: 0.000318

Exam item: And then G32U U56A C68G , what is it?
Marked response: 0.000222

Exam item: And then A14G G29U , what is it?
Marked response: 0.00497
